- MEASUREMENT_NOTES: Kinetic solubility of the compound in phosphate buffered saline of pH 7.4
- Assay type: physicochemical
MEASURE_NAME: solubility kinetic (µg/mL)
Quick reminder: number only, in µg/mL, skip the unit.

Challenge: Requested field: solubility kinetic. Item: O=C1CCCN1Cc1ccc(-n2nc(C(F)(F)F)c3c2CCCC3)cc1F
Response given: 88

Challenge: Requested field: solubility kinetic. Item: CS(=O)(=O)c1ccc(-n2nc(C(F)(F)F)c3c2CCCC3)cc1
Response given: 13

Challenge: Requested field: solubility kinetic. Item: O=C1CCCN1Cc1c(F)cc(-n2nc(C(F)(F)F)c3c2CCOC3)cc1F
Response given: 207

Challenge: Requested field: solubility kinetic. Item: O=C(c1ccc(-n2nc(C(F)(F)F)c3c2CCCC3)cc1)N1CCOCC1
Response given: 123

Challenge: Requested field: solubility kinetic. Item: O=C(c1ccc(-n2nc(C(F)(F)F)c3c2CCCC3)cc1)N1CCCC1
Response given: 133

* * *

- MEASUREMENT_NOTES: in vivo
- REPORTED_CONDITIONS: rat, brain, po, 3 mg/kg
- Description: AUC ( 0 to t) ratio in brain to blood of rat at 3 mg/kg, po
MEASURE_NAME: Kp
Enter a number only.

Challenge: Requested field: Kp. Item: O=C1CCCN1Cc1ccc(-n2nc(C(F)(F)F)c3c2CCCC3)cc1
Response given: 1.4

Challenge: Requested field: Kp. Item: O=C1CCCN1Cc1ccc(-n2nc(C(F)(F)F)c3c2CCCC3)cc1F
Response given: 1.3

* * *

- MEASUREMENT_NOTES: Kinetic solubility of the compound in phosphate buffered saline of pH 7.4
- Assay type: physicochemical
Please note: TRUE applies when solubility kinetic is 20 µg/mL or greater, and FALSE applies otherwise.

Challenge: Say whether O=C(Cc1ccc(-n2nc(C(F)(F)F)c3c2CCCC3)cc1)N1CCCC1 shows solubility kinetic of 20 µg/mL or more.
Response given: TRUE

Challenge: Say whether CN(Cc1ccc(-n2nc(C(F)(F)F)c3c2CCCC3)cc1)S(C)(=O)=O shows solubility kinetic of 20 µg/mL or more.
Response given: FALSE

Challenge: Say whether O=S(=O)(NCc1ccc(-n2nc(C(F)(F)F)c3c2CCCC3)cc1)C1CC1 shows solubility kinetic of 20 µg/mL or more.
Response given: FALSE

Challenge: Say whether CC(=O)NCc1ccc(-n2nc(C(F)(F)F)c3c2CCCC3)cc1 shows solubility kinetic of 20 µg/mL or more.
Response given: TRUE

Challenge: Say whether CN(C)S(=O)(=O)c1ccc(-n2nc(C(F)(F)F)c3c2CCCC3)cc1 shows solubility kinetic of 20 µg/mL or more.
Response given: FALSE

Challenge: Say whether O=C(N1CCCC1)C1(c2ccc(-n3nc(C(F)(F)F)c4c3CCCC4)cc2)CC1 shows solubility kinetic of 20 µg/mL or more.
Response given: TRUE

Challenge: Say whether CS(=O)(=O)NCc1ccc(-n2nc(C(F)(F)F)c3c2CCCC3)cc1 shows solubility kinetic of 20 µg/mL or more.
Response given: TRUE

* * *

Can you tell me log10(solubility kinetic) for the items I'm about to list?
- MEASUREMENT_NOTES: Kinetic solubility of the compound in phosphate buffered saline of pH 7.4
- Format: physicochemical
Kindly note that the scale is log10 and the underlying solubility kinetic is in mg/mL.

Challenge: Requested field: log10(solubility kinetic). Item: CCCCN(C)C(=O)c1ccc(-n2nc(C(F)(F)F)c3c2CCCC3)cc1
Response given: -1.19

Challenge: Requested field: log10(solubility kinetic). Item: CCC(=O)NCc1ccc(-n2nc(C(F)(F)F)c3c2CCCC3)cc1
Response given: -1.21

Challenge: Requested field: log10(solubility kinetic). Item: O=C(c1ccc(-n2nc(C(F)(F)F)c3c2CCCC3)cc1)N1CCCCC1
Response given: -1.80

Challenge: Requested field: log10(solubility kinetic). Item: CC(=O)Cc1ccc(-n2nc(C(F)(F)F)c3c2CCCC3)cc1
Response given: -1.36

Challenge: Requested field: log10(solubility kinetic). Item: O=C(Cc1ccc(-n2nc(C(F)(F)F)c3c2CCCC3)cc1F)N1CCCC1
Response given: -1.39

Challenge: Requested field: log10(solubility kinetic). Item: O=C(N1CCCC1)C(F)(F)c1ccc(-n2nc(C(F)(F)F)c3c2CCCC3)cc1
Response given: -0.91

Challenge: Requested field: log10(solubility kinetic). Item: CN(C)C(=O)Cc1ccc(-n2nc(C(F)(F)F)c3c2CCCC3)cc1
Response given: -0.93

Challenge: Requested field: log10(solubility kinetic). Item: O=C(c1ccc(-n2nc(C(F)(F)F)c3c2CCOC3)cc1)N1CCCC1
Response given: -0.72

Challenge: Requested field: log10(solubility kinetic). Item: O=C1CCCN1Cc1ccc(-n2nc(C(F)(F)F)c3c2COCC3)cc1
Response given: -0.91

Challenge: Requested field: log10(solubility kinetic). Item: O=C1CCCN1Cc1ccc(-n2nc(C(F)(F)F)c3c2CCOC3)cc1
Response given: -0.67
